System: Pyricularia oryzae
Test: whole plant or invertebrate
Type: in vivo
Details: Pyricularia oryzae, 120 h, read-out: disease control rating, Ex. E, 20 PPM
Observable: pest or weed control at 20 ppm
Write the quantity with the unit trailing the number.

The examples below pair each entry with its known result.
Molecule: C=C(c1ccc(F)cc1)C(O)(Cn1cncn1)c1ccc(Cl)c(Cl)c1 (stereo not drawn) [Example 651]
Observed: 0%

Molecule: C=C(c1ccc(OC)cc1)C(O)(Cn1cncn1)c1ccc(F)cc1 (stereo not drawn) [Example 726]
Observed: 0%

Molecule: C=C(c1ccc(F)cc1)C(O)(Cn1cncn1)c1cccc(C(F)(F)F)c1 (stereo not drawn) [Example 661]
Observed: 0%

Molecule: C=C(c1ccc(F)cc1)C(O)(Cn1cncn1)C(C)C (stereo not drawn) [Example 667]
Observed: 0%

Molecule: C=C(c1ccc([S+](C)[O-])cc1)C(O)(Cn1cncn1)c1ccc(F)cc1 (stereo not drawn) [Example 170]
Observed: 0%

# batch: return pest or weed control at 20 ppm for each of the 5 molecules below
1. C=C(c1cccc(Cl)c1)C(O)(Cn1cncn1)c1ccc(Cl)c(Cl)c1 (stereo not drawn) [Example 905]
2. C=C(c1cccc(F)c1)C(O)(Cn1cncn1)c1ccc(Cl)cc1Cl (stereo not drawn) [Example 16]
3. C=C(c1ccc(SC)cc1)C(O)(Cn1cncn1)c1ccc(F)cc1 (stereo not drawn) [Example 163]
4. C=C(c1ccccc1)[C@](O)(Cn1cncn1)c1ccc(F)cc1 [Example 1276]
5. C=C(c1ccccc1)C(O)(Cn1cncn1)c1ccccc1Cl (stereo not drawn) [Example 596]

Result:
1. 0%
2. 0%
3. 5%
4. 1%
5. 0%

# batch: return pest or weed control at 20 ppm for each of the 4 molecules below
1. C=C(c1ccc(Cl)cc1)C(O)(Cn1cncn1)c1ccc(Cl)c(Cl)c1 (stereo not drawn) [Example 675]
2. C=C(c1ccc(F)cc1)C(O)(Cn1cncn1)c1ccc(F)cc1 (single isomer, unassigned) [Example 1277a]
3. C=C(c1ccc(F)cc1)C(Cn1cncn1)(OC(C)=O)c1ccc(F)cc1 (stereo not drawn) [Example 361]
4. C=C(c1cccc(Cl)c1)C(O)(Cn1cncn1)c1ccccc1F (stereo not drawn) [Example 47]

Result:
1: 0%; 2: 1%; 3: 1%; 4: 15%
